Test system: C2C12 myoblast cell line
Assay: Western blot of MYH3 protein in differentiating C2C12 cells
Format: cell-based, mouse
Details: 0.2 μM every day, third day of differentiation, vs DMSO control; FIG. 3

- Compound: "CCCCCCCCCCCC[n+]1ccccc1 [dodecylpyridinium chloride]"
  amount of MYH3 protein (Western blot): "significantly increased"
- Compound: "CCCC[n+]1ccccc1 [butylpyridinium chloride]"
  amount of MYH3 protein (Western blot): "significantly increased"
- Compound: "CCCCCCCCCCCCCCCC[n+]1ccccc1 [cetylpyridinium chloride]"
  amount of MYH3 protein (Western blot): "significantly increased"
